test: protein stability index of a GFP-peptide fusion (yeast GPS) (PSI 1-4); higher = more stable; sorted into four equal gates, so the index is relative within each strain; details: doa10∆
Each entry below lists one item and its recorded protein stability index value.
// response body must contain only the number

| seqString | protein stability index |
| --- | --- |
| VKDEAFDDLLKPVYKGK [RET1] | 3.35 |
| HKMSMMAHRVKVIPYST [RPO21] | 2.47 |
| PEDPYFNTLVRIMSTRC [DIS3] | 2.38 |
| AELKLAGEFGLKNKKEI [RPS9A] | 3.08 |
| LNLFSNVLKAPFIKSES [SIR4] | 1.67 |

Ask: Please look up its protein stability index: PNMSICIFGDAFDVDRA [RPL1A]
Result: 2.78

Ask: Please look up its protein stability index: VHRDDPALVGKLRGDLR [SNF6]
Result: 3.36

Ask: Please look up its protein stability index: VSLTKRKQEREITSLRQ [YIL149C/MLP2]
Result: 2.03

Ask: Please look up its protein stability index: ERLKVPILVTLVSDSEI [POP6]
Result: 1.55

Ask: Please look up its protein stability index: ESKSLLNLFSNVLKAPF [SIR4]
Result: 2.39

Ask: Please look up its protein stability index: ETIIFDSELNRALFETK [RRI1]
Result: 3.03

Ask: Please look up its protein stability index: GALDVEGLCIVAGSKCW [RRP45]
Result: 2.83

----------
Each entry below lists one item and its recorded protein stability index value.
assay: protein stability index of a GFP-peptide fusion (yeast GPS) (PSI 1-4); higher = more stable; sorted into four equal gates, so the index is relative within each strain; settings: ubr1∆

| seqString | testValue |
| --- | --- |
| SDNNSRIMSRNFYLKRF [SWI1] | 3.09 |
| GSENKRGSLDSEHVFDY [NUT1] | 3.57 |
| FNTNFDDEFGDLDAVFF [SNF6] | 3.01 |
| NGGSEEEITCALDYLIP [MED7] | 3.35 |
| GSKSDGSAATSGFEFSK [RPN1] | 3.1 |

Ask: Please look up its protein stability index: YDLMAPNGHISTKKIQV [YMR129W/POM152]
Result: 1.94

Ask: Please look up its protein stability index: DSNGDFNEDQLFSLLEL [RRP46]
Result: 2.98

Ask: Please look up its protein stability index: PCLRKYEEFRDVAIENN [RRP43]
Result: 2.94

Ask: Please look up its protein stability index: LTVENKLQFETDRLSTT [SMC1]
Result: 2.94

Ask: Please look up its protein stability index: VNNTRRRVYNRVLETTL [BRN1]
Result: 2.65

Ask: Please look up its protein stability index: SKPVLIVGQKNLNRAFN [DIS3]
Result: 2.8

Ask: Please look up its protein stability index: IQPKITELKKKLDDLEN [SMC1]
Result: 2.71

Ask: Please look up its protein stability index: YLLASLKDSKDFDESLK [RPN9]
Result: 2.52

Ask: Please look up its protein stability index: WREQLRNRDIALFQPPN [ROX3]
Result: 1.96

Ask: Please look up its protein stability index: LFPVAAQDSLTVTIASS [RPB8]
Result: 1.61

Ask: Please look up its protein stability index: DVETVKREIQEALSEKP [RPC53]
Result: 3.35

Ask: Please look up its protein stability index: QDPKTLVALLSRDLWCF [SSN2]
Result: 1.54

Ask: Please look up its protein stability index: IEDPNLSSNITFDGKPT [YMR153W/NUP53]
Result: 3.17

Ask: Please look up its protein stability index: FTPKLIYDFITLFSSIE [ECM29]
Result: 2.38

Ask: Please look up its protein stability index: SKSVPTPSLPIAPPVAP [SNF5]
Result: 2.55
